Biological target: human 15-LO (Homo sapiens)
Assay: Human Lysate 15-LO Assay (HUM15LO)
Conditions: recombinant human 15-LO, 174 μM linoleic acid, 15 minutes at 4° C., 13-HODE quantitated
Property: IC50 (nM)

> print(dat)
                               input.smiles  reported
1  COC(=O)COC(=O)NS(=O)(=O)Nc1cc(C(=O)Nc2ccc(F)c(F)c2)ccc1OC       236
2  CCCCCCCOC(=O)NS(=O)(=O)Nc1cc(-c2cc3cc(F)c(F)cc3[nH]2)ccc1OC        14
3  COc1ccc(-c2cc3cc(F)c(F)cc3[nH]2)cc1NS(=O)(=O)NC(=O)OCCOC(C)C        30
4  COc1ccc(C(=O)Nc2ccc(F)c(F)c2)cc1NS(=O)(=O)NC(=O)Nc1ccc(N)cc1       214
5  COc1ccc(C(=O)Nc2ccc(F)c(F)c2)cc1NS(=O)(=O)NC(=O)OC/C=C/c1ccccc1        13

(1) COc1ccc(-c2cc3cc(F)c(F)cc3[nH]2)cc1NS(=O)(=O)NC(=O)OCC(C)C
(2) COc1ccc(-c2cc3cc(F)c(F)cc3[nH]2)cc1NS(=O)(=O)NC(=O)OCC(=O)OCc1ccccc1
Data request: Endpoint returns the identifier whose IC50 is numerically larger, either 1 or 2 . Your answer should be the label of the entry you select.
Data returned: 1
(1: 25 nM, 2: 10 nM)

---

Biological target: human 15-LO (Homo sapiens)
Sequence (P16050 1-662): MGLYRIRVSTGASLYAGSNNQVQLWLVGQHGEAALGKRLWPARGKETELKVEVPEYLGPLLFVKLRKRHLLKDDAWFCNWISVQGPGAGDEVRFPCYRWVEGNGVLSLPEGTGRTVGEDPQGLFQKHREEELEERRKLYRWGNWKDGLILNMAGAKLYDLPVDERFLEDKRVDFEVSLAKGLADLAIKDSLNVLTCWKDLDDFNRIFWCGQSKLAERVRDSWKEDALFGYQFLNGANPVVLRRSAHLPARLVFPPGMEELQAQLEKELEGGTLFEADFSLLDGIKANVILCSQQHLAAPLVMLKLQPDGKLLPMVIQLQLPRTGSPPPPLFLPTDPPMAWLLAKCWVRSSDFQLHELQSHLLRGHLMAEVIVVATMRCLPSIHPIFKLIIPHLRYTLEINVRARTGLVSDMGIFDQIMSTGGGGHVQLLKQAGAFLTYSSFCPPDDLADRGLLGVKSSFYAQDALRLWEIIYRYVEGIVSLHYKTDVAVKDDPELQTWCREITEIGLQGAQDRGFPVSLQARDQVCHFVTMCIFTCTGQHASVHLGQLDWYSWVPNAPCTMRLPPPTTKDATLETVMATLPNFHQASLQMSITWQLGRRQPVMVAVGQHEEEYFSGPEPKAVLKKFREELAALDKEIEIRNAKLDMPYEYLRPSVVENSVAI
Test: Human Lysate 15-LO Assay (HUM15LO)
Settings: recombinant human 15-LO, 174 μM linoleic acid, 15 minutes at 4° C., 13-HODE quantitated
pIC50: −log10 of the molar value.
Property: pIC50

The following compounds have reported results that may help.
> print(dat)
                               input.smiles               tested.target  property  reported
1  CCS(=O)(=O)CCOC(=O)NS(=O)(=O)Nc1cc(C(=O)Nc2ccc(F)c(F)c2)ccc1OC  human 15-LO (Homo sapiens)     pIC50      6.51
2  COc1ccc(C(=O)Nc2ccc(F)c(F)c2)cc1NS(=O)(=O)NC(=O)Nc1ccc(Cl)cc1  human 15-LO (Homo sapiens)     pIC50      6.44

(a) COc1ccc(C(=O)Nc2ccc(F)c(F)c2)cc1NS(=O)(=O)NC(=O)OCCN1CCOCC1
(b) COc1ccc(-c2cc3cc(F)c(F)cc3[nH]2)cc1NS(=O)(=O)NC(=O)OCCCOCc1ccccc1
(c) CCCCCCCCCCCCOC(=O)NS(=O)(=O)Nc1cc(-c2cc3cc(F)c(F)cc3[nH]2)ccc1OC
(d) COc1ccc(C(=O)Nc2ccc(F)c(F)c2)cc1NS(=O)(=O)NC(=O)OC(C)(C)C
Data request: Form: Sort by [pIC50] Order [ ascending ] // respond by listing labels in the order requested
Data returned: d, a, b, c
